So I've got a bunch of variants here, and I need their denaturant m value values.
B1: Ribonuclease, P00648 (parent)
chain: MMKMEGIALKKRLSWISVCLLVLVSAAGMLFSTAAKTETSSHKAHTEAQVINTFDGVADYLQTYHKLPDNYITKSEAQALGWVASKGNLADVAPGKSIGGDIFSNREGKLPGKSGRTWREADINYTSGFRNSDRILYSSDWLIYKTTDHYQTFTKIR

variants of: B1; conditions: Bacillus amyloliquefaciens; pH 5.8; 25 °C; Urea; Fluorescence; MES/Tris 150 mM/150 mM/; NaCl 1 M; structure 1BNI; whole UniProt chain shown
Answers are plain numbers, in kcal/mol/M.

## Input Could you share which denaturant m value value was measured for W141F ?
## Output 1.89

## Input Could you share which denaturant m value value was measured for W141L ?
## Output 2

## Input Could you share which denaturant m value value was measured for W141Y ?
## Output 1.98

For the next question, use this variant.
## Input Could you share which denaturant m value value was measured for H65G ?
## Output 1.85
